# measured.on: UniProt Q9UM73
# Sequence (Q9UM73 whole entry, looked up): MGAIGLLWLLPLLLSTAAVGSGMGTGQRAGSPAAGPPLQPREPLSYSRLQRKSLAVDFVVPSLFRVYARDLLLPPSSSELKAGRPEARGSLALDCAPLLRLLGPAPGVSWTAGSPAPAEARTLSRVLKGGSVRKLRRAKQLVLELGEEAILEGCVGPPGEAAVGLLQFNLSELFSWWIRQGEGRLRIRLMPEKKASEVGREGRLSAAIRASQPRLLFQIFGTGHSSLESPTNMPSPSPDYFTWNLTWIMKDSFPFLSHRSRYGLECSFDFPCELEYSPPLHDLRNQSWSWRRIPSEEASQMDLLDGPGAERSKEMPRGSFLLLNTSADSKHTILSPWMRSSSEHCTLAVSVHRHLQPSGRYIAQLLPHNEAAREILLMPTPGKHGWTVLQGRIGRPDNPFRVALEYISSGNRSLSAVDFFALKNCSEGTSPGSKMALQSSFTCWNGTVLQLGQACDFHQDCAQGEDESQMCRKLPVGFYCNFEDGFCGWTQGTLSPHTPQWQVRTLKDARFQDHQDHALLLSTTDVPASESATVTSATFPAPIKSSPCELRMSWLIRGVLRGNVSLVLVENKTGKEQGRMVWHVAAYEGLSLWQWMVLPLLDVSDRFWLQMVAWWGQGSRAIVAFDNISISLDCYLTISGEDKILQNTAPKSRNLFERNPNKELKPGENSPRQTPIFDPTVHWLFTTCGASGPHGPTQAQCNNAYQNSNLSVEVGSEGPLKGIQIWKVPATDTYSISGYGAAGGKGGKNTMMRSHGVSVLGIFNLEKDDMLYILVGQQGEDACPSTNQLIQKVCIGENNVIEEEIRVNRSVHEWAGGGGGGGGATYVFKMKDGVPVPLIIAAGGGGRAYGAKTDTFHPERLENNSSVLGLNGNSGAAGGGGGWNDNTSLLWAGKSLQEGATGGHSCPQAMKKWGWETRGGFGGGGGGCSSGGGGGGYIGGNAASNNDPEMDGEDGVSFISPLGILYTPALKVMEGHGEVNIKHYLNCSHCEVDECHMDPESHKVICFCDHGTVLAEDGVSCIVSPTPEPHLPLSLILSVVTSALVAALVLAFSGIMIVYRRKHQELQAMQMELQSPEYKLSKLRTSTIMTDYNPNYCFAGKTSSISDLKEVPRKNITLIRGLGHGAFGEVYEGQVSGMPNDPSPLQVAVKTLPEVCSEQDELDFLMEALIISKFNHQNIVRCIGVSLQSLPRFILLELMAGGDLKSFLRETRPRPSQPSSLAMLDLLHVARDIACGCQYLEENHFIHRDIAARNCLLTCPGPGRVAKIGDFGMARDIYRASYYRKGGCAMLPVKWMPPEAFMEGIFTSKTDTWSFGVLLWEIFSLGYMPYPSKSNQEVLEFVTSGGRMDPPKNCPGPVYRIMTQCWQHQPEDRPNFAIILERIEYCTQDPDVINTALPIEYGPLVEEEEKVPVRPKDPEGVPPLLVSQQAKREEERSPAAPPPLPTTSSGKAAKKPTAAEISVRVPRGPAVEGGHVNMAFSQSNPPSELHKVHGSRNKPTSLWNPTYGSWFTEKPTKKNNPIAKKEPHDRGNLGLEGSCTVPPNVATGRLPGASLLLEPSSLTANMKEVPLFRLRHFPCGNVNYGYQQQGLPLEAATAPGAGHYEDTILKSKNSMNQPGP
# experiment: radiometric filter-binding kinase assay, Kinase HotSpot
# measurement.conditions: compound 0.5 µM; ATP 10 µM
// residual activity lookup, one value per entry
assay.endpoint: residual activity (%)

compound=Nc1n[nH]c2nnc(-c3c(-c4ccccc4)nn4ccccc34)cc12 measured_on="UniProt Q9UM73" reported_measurement=108
compound=Clc1ccc(Nc2nnc(Cc3ccncc3)c3ccccc23)cc1 measured_on="UniProt Q9UM73" reported_measurement=102
compound=Nc1nc(Nc2ccc(S(N)(=O)=O)cc2)nn1C(=S)Nc1c(F)cccc1F measured_on="UniProt Q9UM73" reported_measurement=16.7
compound=COc1cc2ncnc(Nc3ccc(F)c(Cl)c3)c2cc1OCCCN1CCOCC1 measured_on="UniProt Q9UM73" reported_measurement=98.8
compound=O=c1cc(N2CCNCC2)oc2c(-c3ccccc3)cccc12 measured_on="UniProt Q9UM73" reported_measurement=83.8
compound=CCN1/C(=C/C(C)=O)Sc2ccc(OC)cc21 measured_on="UniProt Q9UM73" reported_measurement=105
compound=O=C1Nc2cc(Br)ccc2/C1=C1/Nc2ccccc2/C1=N\O measured_on="UniProt Q9UM73" reported_measurement=88.5
compound=O=C1Nc2ccccc2/C1=C\c1c(Cl)[nH]c2ccccc12 measured_on="UniProt Q9UM73" reported_measurement=97.9
compound=O=C1Cc2c([nH]c3ccc([N+](=O)[O-])cc23)-c2ccccc2N1 measured_on="UniProt Q9UM73" reported_measurement=94.2
compound="CS(=O)c1ccc(-c2nc(-c3ccc(F)cc3)c(-c3ccncc3)[nH]2)cc1 (centres undefined)" measured_on="UniProt Q9UM73" reported_measurement=105
compound=O=c1cc(-c2cccc3c2Sc2ccccc2S3)oc(N2CCOCC2)c1 measured_on="UniProt Q9UM73" reported_measurement=96.2
compound=COc1ccc(-c2cnc3c(-c4ccsc4)cnn3c2)cc1 measured_on="UniProt Q9UM73" reported_measurement=80.4
compound=COc1cc2nccc(Oc3ccc(NC(=S)NC(=O)c4ccccc4C)cc3)c2cc1OC measured_on="UniProt Q9UM73" reported_measurement=80.8
compound=CC(C)n1cnc2c(Nc3cccc(Cl)c3)nc(NCCO)nc21 measured_on="UniProt Q9UM73" reported_measurement=91.8
compound="O=C(NC(NC(=S)Nc1ccc(F)c([N+](=O)[O-])c1)C(Cl)(Cl)Cl)C(c1ccccc1)c1ccccc1 (centres undefined)" measured_on="UniProt Q9UM73" reported_measurement=110
compound=O=C(Nc1ccc(Cl)cc1)c1ccccc1NCc1ccncc1 measured_on="UniProt Q9UM73" reported_measurement=103
compound=Cc1ccc(NC(=O)c2ccc(CN3CCN(C)CC3)cc2)cc1Nc1nc(-c2cccnc2)cs1 measured_on="UniProt Q9UM73" reported_measurement=103
compound=CC(C)(C)c1nc2c3ccc(F)cc3c3c(=O)[nH]ccc3c2[nH]1 measured_on="UniProt Q9UM73" reported_measurement=20
compound=Oc1ccc(-c2nc(-c3ccc(F)cc3)c(-c3ccncc3)[nH]2)cc1 measured_on="UniProt Q9UM73" reported_measurement=104
compound=NC(=O)c1ccc(N(C(N)=O)c2c(F)cccc2F)nc1-c1ccc(F)cc1F measured_on="UniProt Q9UM73" reported_measurement=99.6
compound="CSc1nc(-c2ccc(F)cc2)c(-c2ccnc(NC(C)c3ccccc3)c2)[nH]1 (centres undefined)" measured_on="UniProt Q9UM73" reported_measurement=93.3
compound=Nc1nc(Nc2ccc(S(N)(=O)=O)cc2)nn1C(=O)c1c(F)cccc1F measured_on="UniProt Q9UM73" reported_measurement=90.1
compound=CC(C)[C@H](CO)Nc1nc(Nc2cccc(Cl)c2)c2ncn(C(C)C)c2n1 measured_on="UniProt Q9UM73" reported_measurement=100
compound=Cc1cc2ncc(-c3ccccc3)nc2cc1C measured_on="UniProt Q9UM73" reported_measurement=98
